Sourced from patent US20220144815A1

Test system: Puccinia recondita
Assay Procedure: Example D: in vivo preventive test (brown rust on wheat)
Measurement Conditions: 264 h, 500 ppm of tested compound, preventive spray, evaluated 11 days after inoculation, read-out: efficacy
Known pest or weed control at 500 µg/mL of a selection of compounds

Example cases with answers are listed next.
1) C#CC(Nc1ncc(-c2nnc(C(F)F)o2)cn1)c1ccccc1 (racemic) = 80 to 89%
2) FC(F)c1nnc(-c2cnc(NC(c3ccccc3)C3CC3)nc2)o1 (racemic) = 80 to 89%

Reported pest or weed control at 500 µg/mL ( Cc1ccc(C2(Nc3ncc(-c4nnc(C(F)F)o4)cn3)CC2)cc1 ) = 90 to 100%

Reported pest or weed control at 500 µg/mL ( COc1cccc(C2(Nc3ncc(-c4nnc(C(F)F)o4)cn3)CC2)c1 ) = 90 to 100%

Reported pest or weed control at 500 µg/mL ( FC(F)c1nnc(-c2cnc(NC3(c4ccccn4)CC3)nc2)o1 ) = 70 to 79%

Reported pest or weed control at 500 µg/mL ( CN(C(=O)c1ccc(-c2nnc(C(F)(F)F)o2)cc1)c1ccccc1 ) = 80 to 89%

Reported pest or weed control at 500 µg/mL ( Fc1ccccc1Nc1ncc(-c2nnc(C(F)F)o2)cn1 ) = 90 to 100%

====

Assay Procedure: Log P by HPLC on reversed phase columns, method [a] (EEC directive 79/831 Annex V.A8)
Assay type: physicochemical
Measurement Conditions: log P determined according to method [a] (HPLC on reversed phase columns)
Procedure: Measurement of Log P values as provided herein was performed according to EEC directive 79/831 Annex V.A8 by HPLC (High Performance Liquid Chromatography) on reversed phase columns with the following methods: • ^[a] […] Lambda-max-values were determined using UV-spectra from 200 nm to 400 nm and the peak values of the chromatographic signals In table 1, the log P values were determined according to method [^a]. In table 2, the log P values were determined according to method [^a].
Property: logP
// return just the number, without any unit appended

Example cases with answers are listed next.
1. Fc1ccc(Nc2ncc(-c3nnc(C(F)F)o3)cn2)cc1 [Example I-095] = 2.64
2. Fc1cc(-c2ncc(-c3nnc(C(F)F)o3)cn2)ccn1 [Example I-079] = 2.33
3. CC1(NC(=O)c2ccc(-c3nnc(C(F)F)o3)cn2)CC1 [Example I-044] = 2.02
4. Fc1ccccc1C1(Nc2ccc(-c3nnc(C(F)(F)Cl)o3)cn2)CC1 [Example I-057] = 3.81
5. Cc1noc(C)c1-c1ncc(-c2nnc(C(F)F)o2)cn1 [Example I-081] = 2.57
6. COC(=O)c1ccc(-c2nnc(C(F)(F)F)s2)cc1 [Example I-011] = 3.23
7. Fc1ccccc1Nc1ccc(-c2nnc(C(F)(F)Cl)o2)cn1 [Example I-053] = 3.54
8. FC(F)c1nnc(-c2cnc(-c3cccs3)nc2)o1 [Example I-071] = 2.64
9. FC(F)c1nnc(-c2cnc(C3=CCCC3)nc2)o1 [Example I-065] = 2.70
10. COCCNc1ncc(-c2nnc(C(F)F)o2)cn1 [Example I-068] = 1.48

Reported logP ( Fc1ccc(C2(Nc3ccc(-c4nnc(C(F)F)o4)cn3)CC2)cc1 [Example I-054] ) = 2.79

Reported logP ( FC(F)c1nnc(-c2cnc(CC3CCCCC3)nc2)o1 [Example I-083] ) = 3.40

Reported logP ( Fc1ccccc1Nc1ncc(-c2nnc(C(F)F)o2)cn1 [Example I-093] ) = 2.43

Reported logP ( FC(F)c1nnc(-c2ccc(-c3nnc(C(F)F)o3)cc2)o1 [Example I-019] ) = 2.44

====

Assay Procedure: Log P by HPLC on reversed phase columns, method [a] (EEC directive 79/831 Annex V.A8)
Assay type: physicochemical
Measurement Conditions: log P determined according to method [a] (HPLC on reversed phase columns)
Property: logP
// return just the number, without any unit appended

1) C#CCNC(=O)c1ccc(-c2nnc(C(F)F)o2)cn1 = 1.68
2) CNC(=O)c1ccc(-c2nnc(C(F)F)o2)cn1 = 1.32
3) CCc1noc(-c2ccc(-c3nnc(C(F)(F)F)o3)cc2)n1 = 3.59

Reported logP ( FC(F)c1nnc(-c2cnc(N3CCOCC3)nc2)o1 ) = 1.87

====

Tested on: Puccinia recondita
Assay Procedure: Example D: in vivo preventive test (brown rust on wheat)
Measurement Conditions: 264 h, 500 ppm of tested compound, preventive spray, evaluated 11 days after inoculation, read-out: efficacy
Method: Solvent: 5% by volume of dimethyl sulfoxide • 10% by volume of acetone Emulsifier: 1 μL of Tween® 80 per mg of active ingredient The tested compounds were made soluble and homogenized in a mixture of dimethyl sulfoxide/acetone/Tween® 80 and then diluted in water to the desired concentration. The young plants of wheat were treated by spraying the tested compound prepared as described above. […] The test was evaluated 11 days after the inoculation. […]
Property: pest or weed control at 500 µg/mL

Example cases with answers are listed next.
1. Fc1ccc(C(Nc2ncc(-c3nnc(C(F)F)o3)cn2)C(F)(F)F)cc1 (racemic) [I.181] = 90 to 100%
2. Fc1ccc(C2(Nc3ncc(-c4nnc(C(F)F)o4)cn3)CC2)cc1 [I.146] = 90 to 100%

Reported pest or weed control at 500 µg/mL ( CC(Nc1ncc(-c2nnc(C(F)F)o2)cn1)c1ccc(F)cc1 (racemic) [I.125] ) = 90 to 100%

====

Assay Procedure: Log P by HPLC on reversed phase columns, method [a] (EEC directive 79/831 Annex V.A8)
Format: physicochemical
Measurement Conditions: reversed phase HPLC column; log P determined according to method [a] (HPLC on reversed phase columns); read-out: logP
Flag rule - chromatographic logP less than 3 flags 1 (yes); the remaining entries get 0 (no).

1) CN(Nc1ncc(-c2nnc(C(F)F)o2)cn1)c1ccccc1 = 1 (yes)
2) COC(=O)C1(Nc2ncc(-c3nnc(C(F)F)o3)cn2)CC1 = 1 (yes)
3) FC(F)c1nnc(-c2cnc(Nc3ccccc3-c3ccccc3)nc2)o1 = 0 (no)
4) Fc1ccc(Cc2ncc(-c3nnc(C(F)F)o3)cn2)c(F)c1 = 1 (yes)
5) Fc1ccccc1Nc1ncc(-c2nnc(C(F)(F)Cl)o2)cn1 = 0 (no)
6) Fc1ccccc1CNc1ncc(-c2nnc(C(F)F)o2)cn1 = 1 (yes)
7) FC(F)c1nnc(-c2cnc(Nc3ccccc3C3CC3)nc2)o1 = 0 (no)
8) CCC(C)(Nc1ncc(-c2nnc(C(F)F)o2)cn1)c1ccccc1 (stereo not shown) = 0 (no)
9) FC(F)(F)c1nnc(-c2cnc(NC3(c4ccccc4)CCC3)nc2)o1 = 0 (no)
10) FC(F)c1nnc(-c2cnc(NC3(c4ccccc4Cl)CC3)nc2)o1 = 0 (no)

Request: Would you kindly verify if chromatographic logP of Fc1cccc(C2(Nc3ncc(-c4nnc(C(F)F)o4)cn3)CC2)c1 is strictly less than 3?
Response: 1 (yes)

Request: Would you kindly verify if chromatographic logP of FC(F)c1nnc(-c2cnc(-c3cncc(Cl)c3)nc2)o1 is strictly less than 3?
Response: 1 (yes)

Request: Would you kindly verify if chromatographic logP of CC(Sc1ncc(-c2nnc(C(F)F)o2)cn1)c1ccccc1 (racemic) is strictly less than 3?
Response: 0 (no)

Request: Would you kindly verify if chromatographic logP of FC(F)c1nnc(-c2cnc(NC3(C4CCCCC4)CC3)nc2)o1 is strictly less than 3?
Response: 0 (no)

Request: Would you kindly verify if chromatographic logP of COc1cccc(C2(Nc3ncc(-c4nnc(C(F)F)o4)cn3)CC2)c1 is strictly less than 3?
Response: 1 (yes)

====

Known chromatographic logP of a selection of compounds
Assay Procedure: Log P by HPLC on reversed phase columns, method [a] (EEC directive 79/831 Annex V.A8)
Assay type: physicochemical
Measurement Conditions: reversed phase HPLC column; log P determined according to method [a] (HPLC on reversed phase columns); read-out: logP
Description: Measurement of Log P values as provided herein was performed according to EEC directive 79/831 Annex V.A8 by HPLC (High Performance Liquid Chromatography) on reversed phase columns with the following methods: • ^[a] […] Lambda-max-values were determined using UV-spectra from 200 nm to 400 nm and the peak values of the chromatographic signals In table 1, the log P values were determined according to method [^a]. In table 2, the log P values were determined according to method [^a].
// return just the number, without any unit appended

Example cases with answers are listed next.
1) Fc1cccc(F)c1C1(Nc2ncc(-c3nnc(C(F)F)o3)cn2)CC1 = 2.95
2) Cc1ccc(C2(Nc3ncc(-c4nnc(C(F)F)o4)cn3)CC2)cc1 = 3
3) CC(C)C(Nc1ncc(-c2nnc(C(F)F)o2)cn1)c1ccccc1 (racemic) = 3.57

Reported chromatographic logP ( Fc1ccccc1C1(Nc2ncc(-c3nnc(C(F)F)s3)cn2)CC1 ) = 3.22

Reported chromatographic logP ( CC(Nc1ncc(-c2nnc(C(F)F)o2)cn1)c1ccc(F)cc1 (racemic) ) = 2.89

Reported chromatographic logP ( CC(Nc1ncc(-c2nnc(C(F)F)o2)cn1)c1ccccc1F (racemic) ) = 2.89

Reported chromatographic logP ( Cc1ccc(C2(Nc3ncc(-c4nnc(C(F)F)o4)cn3)COC2)cc1 ) = 2.57
